Data credit: paper PMC9322761

- TARGET_DESC: HDAC1 (Homo sapiens, UniProt Q13547)
- Sequence (Q13547 whole entry): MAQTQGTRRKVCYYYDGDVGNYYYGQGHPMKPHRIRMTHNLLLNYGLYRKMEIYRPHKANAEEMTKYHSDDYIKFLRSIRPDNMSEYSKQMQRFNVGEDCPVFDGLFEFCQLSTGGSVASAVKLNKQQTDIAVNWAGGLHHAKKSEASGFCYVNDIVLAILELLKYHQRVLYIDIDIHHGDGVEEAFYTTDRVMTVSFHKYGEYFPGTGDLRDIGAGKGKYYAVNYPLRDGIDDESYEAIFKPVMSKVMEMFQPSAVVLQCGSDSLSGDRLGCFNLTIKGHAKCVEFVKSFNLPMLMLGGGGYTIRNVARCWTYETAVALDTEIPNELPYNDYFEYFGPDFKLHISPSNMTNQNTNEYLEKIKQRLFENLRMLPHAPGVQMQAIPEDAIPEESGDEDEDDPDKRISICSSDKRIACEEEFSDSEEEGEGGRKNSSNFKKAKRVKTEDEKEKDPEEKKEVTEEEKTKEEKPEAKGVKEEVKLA
- METHOD_DESCRIPTION: In vitro HDAC inhibitory activity assay, recombinant HDAC1 (fluorogenic substrate ZMAL)
- Type: biochemical
- Design: purchased BPS Biosciences
pIC50: −log10 of the molar value.
Listing of entries alongside the reported pIC50.

- COMPOUND: "Cc1ccc(C(=O)NO)cc1NCc1ccc(OCc2cn(CCCCCC(=O)Nc3cccc4c3C(=O)N(C3CCC(=O)NC3=O)C4=O)nn2)cc1 (stereo not shown) [CRBN_1d]"
  RELATION_SYMBOL: "="
  pIC50: 4.88
- COMPOUND: "O=C(COc1ccc(CNc2cc(C(=O)NO)ccc2Cl)cc1)NCCCOCCOCCOCCCNc1cccc2c1C(=O)N(C1CCC(=O)NC1=O)C2=O (stereo not shown) [CRBN_1h]"
  RELATION_SYMBOL: "="
  pIC50: 5.41
- COMPOUND: "COc1ccc(C(=O)NO)cc1NC(=O)c1ccc(NC(=O)CCCCCCCNc2cccc3c2C(=O)N(C2CCC(=O)NC2=O)C3=O)cc1 (stereo not shown) [CRBN_1b]"
  RELATION_SYMBOL: "<"
  pIC50: 4.70
- COMPOUND: "COc1ccc(C(=O)NO)cc1NC(=O)c1ccc(NC(=O)CCCCCNc2cccc3c2C(=O)N(C2CCC(=O)NC2=O)C3=O)cc1 (stereo not shown) [CRBN_1a]"
  RELATION_SYMBOL: "="
  pIC50: 5.36
